Where do these numbers come from? They come from patent US20210087206A1.

# system.tested: BaF3 EML4-ALK (Homo sapiens)
# Construct: The EML4-ALK gene (variant 1) was synthesized at GenScript and cloned into pCDH-CMV-MCS-EF1-Puro plasmid (System Biosciences, Inc); fused on or other part: EML4 N-terminal part (variant 1: exons 1-13, with the coiled-coil that oligomerises the fusion) fused to the intracellular part of ALK, which contains the kinase domain; Q9HC35 (Echinoderm microtubule-associated protein-like 4)
# Sequence (Q9UM73 whole entry, stated change not applied, the tested form may be a part): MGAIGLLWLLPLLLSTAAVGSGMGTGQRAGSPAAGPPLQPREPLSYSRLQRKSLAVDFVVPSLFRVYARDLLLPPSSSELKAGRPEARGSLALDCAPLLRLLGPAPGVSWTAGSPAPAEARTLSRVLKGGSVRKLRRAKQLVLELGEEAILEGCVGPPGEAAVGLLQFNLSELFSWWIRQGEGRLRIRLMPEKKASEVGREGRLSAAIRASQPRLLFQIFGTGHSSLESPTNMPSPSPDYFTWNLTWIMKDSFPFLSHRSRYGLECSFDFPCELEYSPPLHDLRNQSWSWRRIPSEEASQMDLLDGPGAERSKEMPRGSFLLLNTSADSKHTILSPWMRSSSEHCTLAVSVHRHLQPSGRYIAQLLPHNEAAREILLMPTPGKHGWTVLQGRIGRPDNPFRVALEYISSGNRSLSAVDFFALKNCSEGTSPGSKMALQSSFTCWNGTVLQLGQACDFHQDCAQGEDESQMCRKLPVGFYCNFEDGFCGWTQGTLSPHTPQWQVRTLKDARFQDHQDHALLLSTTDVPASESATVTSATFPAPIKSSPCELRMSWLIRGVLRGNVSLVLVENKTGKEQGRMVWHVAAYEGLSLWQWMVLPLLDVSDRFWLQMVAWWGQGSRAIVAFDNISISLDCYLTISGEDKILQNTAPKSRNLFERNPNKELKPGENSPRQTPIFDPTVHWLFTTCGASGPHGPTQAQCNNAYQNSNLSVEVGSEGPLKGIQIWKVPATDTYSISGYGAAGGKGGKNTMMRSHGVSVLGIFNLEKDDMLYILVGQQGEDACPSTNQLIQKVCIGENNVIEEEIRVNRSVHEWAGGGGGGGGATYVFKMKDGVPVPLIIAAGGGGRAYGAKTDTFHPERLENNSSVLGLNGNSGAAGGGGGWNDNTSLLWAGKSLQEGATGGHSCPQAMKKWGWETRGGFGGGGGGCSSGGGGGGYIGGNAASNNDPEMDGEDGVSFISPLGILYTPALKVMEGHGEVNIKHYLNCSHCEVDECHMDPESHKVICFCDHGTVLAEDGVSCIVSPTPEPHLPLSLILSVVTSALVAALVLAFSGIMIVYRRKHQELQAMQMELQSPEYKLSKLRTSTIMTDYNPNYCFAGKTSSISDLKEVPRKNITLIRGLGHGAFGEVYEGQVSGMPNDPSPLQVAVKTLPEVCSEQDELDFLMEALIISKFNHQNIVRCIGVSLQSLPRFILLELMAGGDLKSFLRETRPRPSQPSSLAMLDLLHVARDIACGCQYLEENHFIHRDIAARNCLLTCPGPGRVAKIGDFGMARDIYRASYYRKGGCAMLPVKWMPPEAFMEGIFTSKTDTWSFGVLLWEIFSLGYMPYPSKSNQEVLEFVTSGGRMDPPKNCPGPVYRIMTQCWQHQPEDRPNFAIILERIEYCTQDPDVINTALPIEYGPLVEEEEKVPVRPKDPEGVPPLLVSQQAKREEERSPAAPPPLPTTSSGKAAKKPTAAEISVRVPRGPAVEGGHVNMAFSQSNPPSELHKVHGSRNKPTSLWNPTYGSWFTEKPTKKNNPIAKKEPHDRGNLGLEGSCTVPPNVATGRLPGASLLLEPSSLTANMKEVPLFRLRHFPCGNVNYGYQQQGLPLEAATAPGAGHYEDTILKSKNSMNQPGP
# test.summary: Cell proliferation assay (CellTiter-Glo)
# Type: cell-based
# condition.parameters: anti-cell proliferation, 72 hours
metric: IC50 (nM)

1 = C=C1COc2cn3ncc4c3nc2N1Cc1cc(F)cnc1OC[C@@H](C)NC4=O
2 = C[C@@H]1CCOc2cn3ncc4c3nc2N1Cc1cc(F)cnc1O[C@@H](C)CNC4=O
3 = CO[C@@H]1COc2cn3ncc4c3nc2N(Cc2cc(F)cnc2O[C@@H](C)CNC4=O)C1
4 = C[C@@H]1COc2cn3ncc4c3nc2N1Cc1cc(F)cnc1OC[C@@H](C(F)F)NC4=O
Qu. Quick one: which order do the items above go in by IC50, smallest to largest? Respond with an ordered listing of the labels, as requested.
Ans. 4, 3, 1, 2
(4: 20.2 nM, 3: 234 nM, 1: 1200 nM, 2: 3000 nM)
